The following sequences are shown together with reported binding signal values.
- testSystem: MBP-FoxP1dN (Mus musculus, UniProt P58462 326-579)
- Sequence: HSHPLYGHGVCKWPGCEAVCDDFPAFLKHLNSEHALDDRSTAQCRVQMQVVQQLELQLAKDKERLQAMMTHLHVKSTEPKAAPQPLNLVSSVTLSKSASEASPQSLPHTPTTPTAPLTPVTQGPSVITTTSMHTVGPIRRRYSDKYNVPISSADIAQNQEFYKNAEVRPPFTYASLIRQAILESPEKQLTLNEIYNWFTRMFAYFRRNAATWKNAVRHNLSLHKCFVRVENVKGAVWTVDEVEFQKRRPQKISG
- methodNotes: PD-seq (MBP pull-down with sequencing); 20 mM Tris-HCl pH 7.5, 100 mM NaCl, 1.5 mM MgCl2, 0.4 uM protein, 0.1 uM dsDNA library, 30 min, room temperature, amylose pull-down; high values mean tight binding
- conditionsUsed: protein: recombinant; tags: His6-MBP; chain copies: 2; dsDNA, one strand shown
Whole data set: some 16,000 sequences, median “rpm ratio (pull-down/input)” near 0.94, cut for the highest 2% near 1.7. The sample as a whole holds a higher share of the highest values than the screen did.

Query the reported binding signal for MBP-FoxP1dN (Mus musculus, UniProt P58462 326-579); item: GATGATTGTTCTCCCAGCTGATGAATTAGTGTTGTCGAGTAAACAAATTTTCCTAATCTTTCTGTTCAAGCGCCATCTAC
2.53 RPM ratio (pull-down/input)

Any idea what binding signal came out for GATGATTGTTCTCCCAGCTGATGAATTGACAATATCGAGTAAACAAATTTTCCTAATCTTTCTGTTCAAGCGCCATCTAC on MBP-FoxP1dN (Mus musculus, UniProt P58462 326-579)?
1.86 RPM ratio (pull-down/input)
